I'd be grateful if you could share measured protein stability index for these entries.
B1: BCL2L13 (parent)
chain: QSLDQEILLKVKTEIEEELKSLDK

Variants of: B1
method-description: protein stability index of a GFP-peptide fusion (GPS, HEK-293T) (PSI 1-6); higher = more stable;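 further: lentivirally expressed fusions sorted by FACS into six bins by GFP to DsRed ratio, PSI derived from sequencing read proportions per bin multiplied by bin number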
test-context: c terminus: a fixed tail appended
Give bare numbers.

QSYDQEILLKVKTEIEEELKSLDK | 5.07
QSLDQEILLKVKTEIEEELMSLDK | 4.48
QSLDQEILLKVKAEIEEELKSLDK | 3.97

Moving on to the next variant.
# variant QSLDQEILLKVKTEIEKELKSLDK ; its protein stability index = 4.41
